# experimentDescription: Measurement of Log P values by HPLC on reversed phase columns (EEC directive 79/831 Annex V.A8)
# Format: physicochemical
# conditionSet: reversed phase HPLC column, method [a]: LC-UV, acidic range, 0.1% formic acid in water and acetonitrile as eluent
endpointLabel: chromatographic logP

chromatographic logP reported for this compound O=C(N[C@H]1CCOc2ccc(F)cc21)c1c(Oc2cccc(C(F)(F)F)c2)nnc2ccccc12 (racemic) [I-165] : 3.69

Given item Cc1ccc(C(F)(F)CNC(=O)c2c(Oc3cccc(Br)c3)cnc3ccccc23)c(C)c1 [I-226] , the value recorded as its chromatographic logP is 4.48

Recorded result, N#Cc1cccc(Oc2nnc3ccccc3c2C(=O)NCC(F)(F)c2ccc(Cl)cn2)c1 [I-248] , chromatographic logP: 2.84

For this compound ( O=C(NCC(F)(F)c1ccccc1Cl)c1c(Oc2cccc(C(F)(F)F)c2)nnc2ccccc12 [I-214] ), measured chromatographic logP is 4.12

Data point: Cc1ccc(CCNC(=O)c2c(Oc3cccc(C(F)(F)F)c3)nnc3cc(C)ccc23)c(C)c1 [I-004] ; chromatographic logP = 4.51

Entry Cc1ccc(C(F)(F)CNC(=O)c2c(Oc3cccc(Cl)c3F)cnc3nccnc23)c(C)c1 [I-100] ; chromatographic logP = 3.38

Cc1ccc(C(F)(F)CNC(=O)c2c(Oc3cccc(Cl)c3F)nnc3c2CCC3)c(C)c1 [I-133] yielded chromatographic logP of 3.89

// Cc1ccc(C(F)(F)CNC(=O)c2c(Oc3cccc(C(F)(F)F)c3)nnc3c2CCCC3)c(Cl)c1 [I-239] : chromatographic logP value = 4.05
